test system: Carbonic anhydrase 9 (Homo sapiens, UniProt Q16790)

- compound smiles: "Nc1c(F)cc(S(=O)(=O)Nc2nnc(S(N)(=O)=O)s2)cc1Cl"
  Ki / nM: 40
- compound smiles: "Nc1ccc(S(=O)(=O)Nc2nnc(S(N)(=O)=O)s2)cc1Cl"
  Ki / nM: 46
- compound smiles: "Nc1c(F)cc(S(=O)(=O)Nc2nnc(S(N)(=O)=O)s2)cc1Br"
  Ki / nM: 27
- compound smiles: "Nc1c(Cl)cc(S(=O)(=O)Nc2nnc(S(N)(=O)=O)s2)cc1Cl"
  Ki / nM: 24
- compound smiles: "CC(=O)Nc1ccc(S(=O)(=O)Nc2nnc(S(N)(=O)=O)s2)cc1"
  Ki / nM: 75
- compound smiles: "Nc1c(F)cc(S(N)(=O)=O)cc1I"
  Ki / nM: 34
- compound smiles: "Nc1c(F)cc(S(N)(=O)=O)cc1Br"
  Ki / nM: 69

---

Observed log10 of Ki, system Carbonic anhydrase 1 (Homo sapiens).
measured attribute: log10 of Ki (log10 of the value in nM)

- compound smiles: "Nc1c(Cl)cc(S(=O)(=O)Nc2nnc(S(N)(=O)=O)s2)cc1Cl"
  test system: "Carbonic anhydrase 1 (Homo sapiens)"
  log10 of Ki: 0.04
- compound smiles: "Nc1c(Cl)cc(S(N)(=O)=O)cc1Br"
  test system: "Carbonic anhydrase 1 (Homo sapiens)"
  log10 of Ki: 3.88
- compound smiles: "Nc1ccc(S(=O)(=O)Nc2nnc(S(N)(=O)=O)s2)cc1Br"
  test system: "Carbonic anhydrase 1 (Homo sapiens)"
  log10 of Ki: 0.28
- compound smiles: "Nc1c(F)cc(S(=O)(=O)Nc2nnc(S(N)(=O)=O)s2)cc1I"
  test system: "Carbonic anhydrase 1 (Homo sapiens)"
  log10 of Ki: 0.23
- compound smiles: "Nc1ccc(S(=O)(=O)Nc2nnc(S(N)(=O)=O)s2)cc1I"
  test system: "Carbonic anhydrase 1 (Homo sapiens)"
  log10 of Ki: 0.32
- compound smiles: "Nc1c(F)cc(S(N)(=O)=O)cc1I"
  test system: "Carbonic anhydrase 1 (Homo sapiens)"
  log10 of Ki: 3.57

---

test system: Carbonic anhydrase 4 (Bos taurus, UniProt Q95323)
Please note: Ki exactly at 100 nM is n. Only values below 100 nM get y.

- compound smiles: "Nc1c(F)cc(S(N)(=O)=O)cc1Br"
  test system: "Carbonic anhydrase 4 (Bos taurus, UniProt Q95323)"
  classification: "n"
- compound smiles: "Nc1c(Br)cc(S(=O)(=O)Nc2nnc(S(N)(=O)=O)s2)cc1Br"
  test system: "Carbonic anhydrase 4 (Bos taurus, UniProt Q95323)"
  classification: "y"
- compound smiles: "Nc1c(Cl)cc(S(N)(=O)=O)cc1Br"
  test system: "Carbonic anhydrase 4 (Bos taurus, UniProt Q95323)"
  classification: "n"
- compound smiles: "Nc1ccc(S(=O)(=O)Nc2nnc(S(N)(=O)=O)s2)cc1Br"
  test system: "Carbonic anhydrase 4 (Bos taurus, UniProt Q95323)"
  classification: "y"
- compound smiles: "Nc1c(Cl)cc(S(=O)(=O)Nc2nnc(S(N)(=O)=O)s2)cc1Br"
  test system: "Carbonic anhydrase 4 (Bos taurus, UniProt Q95323)"
  classification: "y"
- compound smiles: "Nc1c(Cl)cc(S(=O)(=O)Nc2nnc(S(N)(=O)=O)s2)cc1I"
  test system: "Carbonic anhydrase 4 (Bos taurus, UniProt Q95323)"
  classification: "y"

---

test system: Carbonic anhydrase 4 (Bos taurus)
Sequence (Q95323 whole entry): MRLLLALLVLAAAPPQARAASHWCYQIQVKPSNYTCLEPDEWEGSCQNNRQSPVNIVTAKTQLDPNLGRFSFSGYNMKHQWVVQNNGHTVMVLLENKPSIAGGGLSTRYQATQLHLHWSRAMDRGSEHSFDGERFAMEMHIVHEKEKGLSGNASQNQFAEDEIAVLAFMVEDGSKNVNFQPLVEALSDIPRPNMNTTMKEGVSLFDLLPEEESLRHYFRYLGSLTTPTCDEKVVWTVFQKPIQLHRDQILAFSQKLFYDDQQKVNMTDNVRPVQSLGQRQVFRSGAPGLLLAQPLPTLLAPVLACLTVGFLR
pKi: −log10 of the molar value.
This listing pairs compounds with measured pKi.
measured attribute: pKi

- compound smiles: "CC(=O)Nc1ccc(S(N)(=O)=O)cc1I"
  value reported: 6.94
- compound smiles: "Nc1c(Cl)cc(S(=O)(=O)Nc2nnc(S(N)(=O)=O)s2)cc1Cl"
  value reported: 8.72
- compound smiles: "Nc1c(Br)cc(S(N)(=O)=O)cc1Br"
  value reported: 6.76
- compound smiles: "Nc1ccc(S(=O)(=O)Nc2nnc(S(N)(=O)=O)s2)cc1F"
  value reported: 8.60
